Could you please report measured enrichment score for the items listed next?
Target: biotinylated His-Avi-TEAD (194-411) (UniProt P28347)
Assay: SSM screen, enrichment after two rounds of sorting
One number for each entry.

For each of the items listed, what is its enrichment score?
1. GSPDEYIWRAKECCKKGDIQCCLRYFEESGDPNVMLICLFCP (designed binder) [E06W variant of SEQ ID NO: 1]
2. GSPDEYIESAKECCKKGDIQCCLRYFEESGDPNVMLICLFCP (designed binder) [R07S variant of SEQ ID NO: 1]
3. GSPDEYIERAKECCWKGDIQCCLRYFEESGDPNVMLICLFCP (designed binder) [K13W variant of SEQ ID NO: 1]

Return:
-1.53
0.31
-2.99

For each of the items listed, what is its enrichment score?
1. GSPDEYIERAKECCKKGDTQCCLRYFEESGDPNVMLICLFCP (designed binder) [I17T variant of SEQ ID NO: 1]
2. GSPKEYIERAKECCKKGDIQCCLRYFEESGDPNVMLICLFCP (designed binder) [D02K variant of SEQ ID NO: 1]
3. GSPDEYIERAKECCKKIDIQCCLRYFEESGDPNVMLICLFCP (designed binder) [G15I variant of SEQ ID NO: 1]

Return:
1. 2.21
2. -1.07
3. -1.96

Values from patent US20230151068A1
